Source: paper PMC11272733

molecular target: peroxidase activity (human TPO) in HEK-TPOA7 cell lysate (Homo sapiens, UniProt P07202); construct: We have transfected the full length of TPO, which is 933 amino acids; expressed in transfected cells; host or cells: HEK293T (clone HEK-TPOA7), lentiviral transduction, CMV promoter; assay: TPO luminol (Lumi) assay, HEK-TPOA7 cell lysate; type: biochemical; settings: current study, n ≥ 3; hematin pre-treated cells; NA = not active up to the highest tested concentration; read-out: Lumi assay IC50, HEK-TPOA7
Sequence (P07202 19-933): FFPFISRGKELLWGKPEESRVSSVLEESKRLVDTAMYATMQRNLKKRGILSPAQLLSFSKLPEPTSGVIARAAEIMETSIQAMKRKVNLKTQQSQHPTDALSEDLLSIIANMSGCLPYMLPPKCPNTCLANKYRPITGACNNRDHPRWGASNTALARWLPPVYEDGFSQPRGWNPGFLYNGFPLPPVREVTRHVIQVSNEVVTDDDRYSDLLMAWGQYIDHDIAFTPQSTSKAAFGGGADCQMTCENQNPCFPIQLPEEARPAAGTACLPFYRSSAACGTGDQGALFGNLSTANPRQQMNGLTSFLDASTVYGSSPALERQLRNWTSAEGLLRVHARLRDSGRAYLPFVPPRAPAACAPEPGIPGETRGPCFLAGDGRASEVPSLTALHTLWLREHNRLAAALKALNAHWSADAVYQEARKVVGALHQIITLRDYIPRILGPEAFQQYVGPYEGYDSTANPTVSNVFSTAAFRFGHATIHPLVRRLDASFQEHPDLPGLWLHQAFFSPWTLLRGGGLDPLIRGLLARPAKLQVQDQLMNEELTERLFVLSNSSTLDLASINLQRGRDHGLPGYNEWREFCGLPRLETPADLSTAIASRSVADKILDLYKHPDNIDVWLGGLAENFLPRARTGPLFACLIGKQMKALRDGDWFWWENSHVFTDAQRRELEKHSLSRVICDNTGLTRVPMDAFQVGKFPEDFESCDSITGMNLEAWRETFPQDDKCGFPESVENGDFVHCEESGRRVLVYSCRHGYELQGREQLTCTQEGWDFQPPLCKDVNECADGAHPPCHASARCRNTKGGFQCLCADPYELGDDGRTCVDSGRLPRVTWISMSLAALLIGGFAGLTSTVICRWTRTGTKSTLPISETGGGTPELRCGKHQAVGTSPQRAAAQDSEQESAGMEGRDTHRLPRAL
So I've got a bunch of compounds here, and I need their IC50 values.
Give just the number in µM; leave the unit off.

Prompt line: Reported IC50, compound Oc1cccc(O)c1 [RSC, Resorcinol] : ____
Response line: 17.9

Prompt line: Reported IC50, compound CC(C)(c1cc(Br)c(O)c(Br)c1)c1cc(Br)c(O)c(Br)c1 [TBBPA, Tetrabromobisphenol A] : ____
Response line: 90.9

Prompt line: Reported IC50, compound Cn1cc[nH]c1=S [MMI, Methimazole, reference compound] : ____
Response line: 3.24

Prompt line: Reported IC50, compound O=C(c1ccc(O)cc1O)c1ccc(O)cc1O [BP2, 2,2′-4,4′-tetrahydroxy benzophenone] : ____
Response line: 20.2

Prompt line: Reported IC50, compound Oc1cc(Cl)ccc1Oc1ccc(Cl)cc1Cl [TCS, Triclosan] : ____
Response line: 38.4

Prompt line: Reported IC50, compound CC(C)(c1ccc(O)cc1)c1ccc(O)cc1 [BPA, Bisphenol A] : ____
Response line: 130
